- Test system: EKVX
- test: NCI tumour cell line growth inhibition, 48 h
The source made the active and inactive calls. Rule as the data show it: active = GI50 up to about 1.1 µM and inactive = higher.
property: GI50

compound	tested-system	GI50
O=C(/C=C1\Sc2ccccc2N=C1CC(=O)c1ccccc1)c1ccccc1	EKVX	6.17 µM (inactive)
Cc1c(N=C(S)Nc2ccc(Cl)cc2)c(=O)n(-c2ccccc2)n1C	EKVX	> 100 µM (inactive)
CCOC(=O)/C(=C\c1ccc(C#N)cc1)C(C)=O	EKVX	49.7 µM (inactive)
CSC1=C(C(=O)Nc2ccc(Cl)cc2)C(N)=NC1=O	EKVX	> 100 µM (inactive)
CCOC(=O)C1=C(C)C2C=C(c3cccs3)CC(c3ccc(Cl)cc3)=C2OC1=O (stereo not given)	EKVX	31 µM (inactive)

INPUT: Record `O=C(Nc1nnn[nH]1)c1nc(O)cc(-c2ccccc2)n1` : what is its GI50 with EKVX?
OUTPUT: > 100 µM (inactive)

INPUT: Please do the same for `O=c1/c(=C/c2cccc3ccccc23)sc2nc3ccccc3n12` as well.
OUTPUT: > 100 µM (inactive)

INPUT: Please do the same for O=c1cc(N2CCOCC2)oc2c(-c3ccccc3)cccc12 [LY-294002] as well.
OUTPUT: 3.49 µM (inactive)

INPUT: Please do the same for `CC(C)(Oc1ccc(Cl)cc1)C(=O)N(C(=O)N1CCN(c2ccccc2)CC1)c1ccccc1` as well.
OUTPUT: 5.83 µM (inactive)

INPUT: Please do the same for `C=C1CC[C@@]2(C)[C@@H]([C@@H]1C)[C@H]1CC[C@@H]3[C@@]4(C)CC[C@H](O)C(C)(C)[C@@H]4CC[C@@]3(C)[C@]1(C)C[C@@H]2O` as well.
OUTPUT: 3 µM (inactive)

INPUT: Please do the same for `O=C(Cc1ccc(Cl)c(Cl)c1)N(CCc1ccc(Cl)c(Cl)c1)CCN1CCCC1` as well.
OUTPUT: 1.92 µM (inactive)

INPUT: Please do the same for Nc1ccc(C(=O)NN2C(=O)[C@H](Cl)C2c2ccc(Cl)cc2)cc1 (stereo not given in full) as well.
OUTPUT: 3.55 µM (inactive)

INPUT: Please do the same for Cc1ccc([N+](=O)[O-])cc1NC(=O)/C(=N/NC(=S)NN)C1SC(=S)NC1=O (stereo not given) as well.
OUTPUT: > 100 µM (inactive)

INPUT: Please do the same for COc1ccc(C2N(c3ccc(C)c(N=C=O)c3)C(=O)N3C(c4ccc(OC)cc4)N(c4ccc(C)c(N=C=O)c4)C(=O)N23)cc1 (stereo not given) as well.
OUTPUT: > 100 µM (inactive)

INPUT: Please do the same for COc1cc2c(c(OC)c1OC)-c1ccc(SC)c(=O)cc1C(NC(=O)c1ccccc1)CC2 (stereo not given) as well.
OUTPUT: 21.2 µM (inactive)
